Value source: patent US20240059759A1

What xmid (log10) was measured for each of the following?
- TGT: SARS-CoV-2 Spike RBD-His Tag, Sino Biological (SARS-CoV-2)
Answer with a number only.

# input Can you share its xmid (log10)? I mean this binder: vhh_tstrep_sars2_pjl1_L_85 (VHH) VHH: QVQLQESGGGLVQAGGSLRLSCAASGRTFSEYAMGWFRQAPGKEREFVATISWSGGATYYTDSVKGRFTISRDNAKNTVYLQMNSLKPDDTAVYYCAAAGLETVVSEWDYDYDYWGQGTQVTVSS
# output -0.815

# input For vhh_tstrep_sars2_pjl1_L_76 (VHH) VHH: QVQLQESGGGLVQAGGSLRLSCAASGRTFSEYAMGWFRQAPGKEREFVATISWSGGATYETDSVKGRFTISRDNAKNTVYLQMNSLKPDDTAVYYCAAAGLGTVVSEWDYDYDYWGQGTQVTVSS , what is its reported xmid (log10)?
# output -0.368

# input Give the measured xmid (log10) of vhh_tstrep_sars2_pjl1_L_82 (VHH) VHH: QVQLQESGGGLVQAGGSLRLSCAASGRTFSEYAMGWFRQAPGKEREFVATISWSGGATYYTDSVKGRFTISRDNAKNTVYLQMNSLKPDDTAVYYCAAAELGTVVSEWDYDYDYWGQGTQVTVSS .
# output 0.109

# input Any idea what its xmid (log10) is? The binder is vhh_tstrep_sars2_pjl1_L_81 (VHH) VHH: QVQLQESGGGLVQAGGSLRLSCAASGRTFSEYAMGWFRQAPGKEREFVATISWSGGATYYTDSVKGRFTISRDNAKNTVYLQMNSLKPDDTAVYYCAAARLGTVVSEWDYDYDYWGQGTQVTVSS
# output 1.06
